system: T1, full-length beta-Catenin (Uniprot ID P35222) (Homo sapiens (Human), UniProt P35222 2-781)
T1 construct: The AlphaScreen assay used a Histidine (Nickel Chelate) detection kit, so a His tag is likely, but no tag is described; also called B-Catenin; bCat
T1 sequence: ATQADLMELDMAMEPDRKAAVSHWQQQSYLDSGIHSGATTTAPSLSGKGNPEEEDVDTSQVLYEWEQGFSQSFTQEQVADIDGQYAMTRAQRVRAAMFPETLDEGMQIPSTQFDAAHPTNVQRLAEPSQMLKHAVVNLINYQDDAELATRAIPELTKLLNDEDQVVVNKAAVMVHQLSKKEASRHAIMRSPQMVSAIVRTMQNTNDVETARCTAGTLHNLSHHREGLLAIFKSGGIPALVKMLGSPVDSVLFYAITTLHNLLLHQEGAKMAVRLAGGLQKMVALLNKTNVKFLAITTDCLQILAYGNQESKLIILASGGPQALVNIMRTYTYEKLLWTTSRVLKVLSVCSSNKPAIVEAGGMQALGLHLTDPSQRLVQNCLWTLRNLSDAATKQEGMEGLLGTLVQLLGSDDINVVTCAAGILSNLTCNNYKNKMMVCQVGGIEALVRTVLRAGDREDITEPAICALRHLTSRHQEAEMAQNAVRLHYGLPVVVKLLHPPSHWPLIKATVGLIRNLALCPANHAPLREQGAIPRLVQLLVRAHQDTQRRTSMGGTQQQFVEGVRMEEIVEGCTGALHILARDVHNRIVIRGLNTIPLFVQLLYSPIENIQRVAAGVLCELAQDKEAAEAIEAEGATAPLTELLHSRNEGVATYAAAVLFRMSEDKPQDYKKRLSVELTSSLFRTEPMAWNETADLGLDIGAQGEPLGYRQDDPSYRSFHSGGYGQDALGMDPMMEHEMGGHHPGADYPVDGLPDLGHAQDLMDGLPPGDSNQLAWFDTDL
experimentNotes: AlphaScreen competition: full-length beta-catenin + biotin-TCF4(10-53) probe, peptide titrated
Starred links: 1 amine or outer side, 2 acyl side, 3 side chain; linkers in the order of their positions; H or OH if unused. Positions of bridges follow the written chain, without caps; N, C: chain ends. Non-standard residues stand in square brackets, D forms with d. Primed or numbered codes have the meaning given here. B5(4) = 2,2-bis(4-pentenyl)glycine = 2-amino-2-(pent-4-en-1-yl)hept-6-enoic acid (stitching residue), C=CCCCC(CCCC=C)(N[*:1])C(=O)[*:2]; Phe(3-CF3) = N[C@@H](Cc1cccc(C(F)(F)F)c1)C(=O)O; αAllylPro = C=CC[C@@]1(C(=O)O)CCCN1; 2Pal = N[C@@H](Cc1ccccn1)C(=O)O; S8 = C=CCCCCCC[C@](C)(N)C(=O)O
quantityKind: EC50 (nM)
Numeric answer only, unit nM assumed.

(Q) Report EC50 for Ac-[αAllylPro]DA[B5(4)]D[Phe(3-CF3)]AAFV[S8]FWQ-NH2 (staple 1-4, 4-11, Stapled peptide composition; also called Ac-PL3-Asp-Ala-B5-Asp-3F3MeF-Ala-Ala-Phe-Val-S8-Phe-Trp-Gln-NH2) [I-245] please.
(A) 2960

(Q) Report EC50 for Ac-[αAllylPro]DA[B5(4)][2Pal]EAAFV[S8]FWQ-NH2 (staple 1-4, 4-11; also: separate staple isomer composition, Stapled peptide composition; also called Ac-PL3-Asp-Ala-B5-2pyrA-Glu-Ala-Ala-Phe-Val-S8-Phe-Trp-Gln-NH2) [I-229] please.
(A) 5810

(Q) Report EC50 for Ac-[αAllylPro]DA[B5(4)]DDAAFV[S8][Phe(3-CF3)]WQ-NH2 (staple 1-4, 4-11, Stapled peptide composition; also called Ac-PL3-Asp-Ala-B5-Asp-Asp-Ala-Ala-Phe-Val-S8-3F3MeF-Trp-Gln-NH2) [I-248] please.
(A) 2830
